Target: Programmed cell death protein 1/Programmed cell death 1 ligand 1 (Homo sapiens, UniProt Q15116+Q9NZQ7)
Sequence (Q15116 whole entry): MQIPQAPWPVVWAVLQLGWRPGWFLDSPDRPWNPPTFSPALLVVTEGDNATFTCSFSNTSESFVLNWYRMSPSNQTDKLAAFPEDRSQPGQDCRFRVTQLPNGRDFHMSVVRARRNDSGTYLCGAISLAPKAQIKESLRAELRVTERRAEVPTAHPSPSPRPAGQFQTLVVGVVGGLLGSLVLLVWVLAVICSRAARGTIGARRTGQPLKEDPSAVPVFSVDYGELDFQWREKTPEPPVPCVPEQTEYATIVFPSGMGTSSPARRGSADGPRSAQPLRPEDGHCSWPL
Sequence (Q9NZQ7 whole entry): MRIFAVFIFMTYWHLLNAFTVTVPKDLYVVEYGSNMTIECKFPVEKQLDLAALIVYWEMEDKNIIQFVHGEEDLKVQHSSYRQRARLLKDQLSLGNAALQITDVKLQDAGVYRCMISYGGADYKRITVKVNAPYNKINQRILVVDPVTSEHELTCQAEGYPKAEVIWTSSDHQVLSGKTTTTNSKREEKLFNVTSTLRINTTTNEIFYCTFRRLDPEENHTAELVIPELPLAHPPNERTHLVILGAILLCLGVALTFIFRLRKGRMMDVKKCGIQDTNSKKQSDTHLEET
Assay: Inhibition of PD-1/PD-L1 interaction (unknown origin) incubated for 90 min by TR-FRET assay
I'd appreciate it if you could supply IC50 values for the items below.

# example entries with known answers
> print(dat)
                                smiles.repr  readout.value
1  Cc1c(-c2ccccc2)cccc1-c1nnc(Nc2cccc(CNCCOCCOCCOCCNCc3cccc(Nc4nnc(-c5ccccc5)o4)c3)c2)o1        28.4 nM
2                         CNc1cccc(CNCCO)c1      > 1000 nM
3  CNc1cccc(CNCCOCCOCCOCCNCc2cccc(Nc3nnc(-c4cccc(-c5ccccc5)c4C)o3)c2)c1        22.3 nM

Exercise: Can you share its IC50? I mean this compound: Cc1c(-c2ccccc2)cccc1-c1nnc(Nc2cccc(CNCCOCCOCCOCCNCc3cccc(Nc4nnc(-c5cccc(-c6ccccc6)c5C)o4)c3)c2)o1
Solution: 24.6 nM

* * *

Molecular target: Programmed cell death protein 1/Programmed cell death 1 ligand 1 (Homo sapiens, UniProt Q15116+Q9NZQ7)
Assay: Inhibition of PD-1/PD-L1 interaction (unknown origin) incubated for 90 min by TR-FRET assay
Response field label: string, one of MET (IC50 strictly below 30 nM) or NOT MET.

> print(dat)
                                smiles.repr  label.value
1        OCCNCc1cccc(Nc2nnc(-c3ccccc3)o2)c1      NOT MET
2  Cc1c(-c2ccccc2)cccc1-c1nnc(Nc2cccc(CNCCOCCOCCOCCOCCOCCNCc3cccc(Nc4nnc(-c5ccccc5)o4)c3)c2)o1          MET
3  Cc1c(-c2ccccc2)cccc1-c1nnc(Nc2cccc(CNCCOCCOCCOCCOCCNCc3cccc(Nc4nnc(-c5ccccc5)o4)c3)c2)o1          MET
4  Cc1c(-c2ccccc2)cccc1-c1nnc(Nc2cccc(CNCCOCCNCc3cccc(Nc4nnc(-c5cccc(-c6ccccc6)c5C)o4)c3)c2)o1      NOT MET

Exercise: Consider the compound Cc1c(-c2ccccc2)cccc1-c1nnc(Nc2cccc(CNCCOCCOCCNCc3cccc(Nc4nnc(-c5cccc(-c6ccccc6)c5C)o4)c3)c2)o1 . Is its IC50 strictly less than 30 nM?
Solution: MET
